// data source = paper PMC4051630

- study.target: CDK2 + Cyclin E (Homo sapiens)
- Construct: CDK2 (P24941); 1–299; His-tag; made in house; host or cells: Escherichia coli
- experiment.notes: Differential Scanning Fluorimetry (DSF) Tm shift
- Format: binding
- condition.description: CDK2 + Cyclin E; 2 µM protein, 10 µM inhibitor; average of 3 experiments, each in duplicate
reported.property: Melting temperature (Tm) shift (degrees Celcius)
Write the value in degrees Celcius as a bare number.

The following molecules have reported results that may help.
Cc1cc(C=C2C(=O)C=CC2=O)cc(C)c1O [TX-1918] | 0.4
O=C1NC(=O)C(=Cc2cccc(C(F)(F)F)c2)S1 [PIM1/2 Kinase Inhibitor V] | 0.2
Cl.Cl.O=S(=O)(NCCNC/C=C/c1ccc(Br)cc1)c1cccc2cnccc12 [H-89, Dihydrochloride] | 0.3
CCCCn1c2ccc(O)cc2c2c3c(c(-c4ccccc4Cl)cc21)C(=O)NC3=O [Wee1 Inhibitor II] | 0.8
c1cc(-c2cnn3cc(-c4ccc(OCCN5CCCCC5)cc4)cnc23)ccn1 [AMPK Inhibitor, Compound C] | 0.5

[Q] Could you tell me which Melting temperature (Tm) shift is on file for O=C1Cc2c([nH]c3ccc([N+](=O)[O-])cc23)-c2ccccc2N1 [Alsterpaullone] ?
[A] 0.2
